# STUDY TARGET: Cathepsin B, purified from human liver (Homo sapiens, UniProt P07858)
# Construct: Cathepsin B, purified from human liver; purchased Enzyme Systems Products (Dublin, Calif.); host or cells: human liver (tissue-purified)
# ASSAY REMARKS: In vitro evaluation of inhibitors with purified cathepsin B
# Type: biochemical
# EXPERIMENTAL CONDITIONS: inhibitors with other heterocycles; read-out: IC5 Cathepsin B Inhibition
# Protocol: Enzyme: Cathepsin B, purified from human liver, is from Enzyme Systems Products (Dublin, Calif.). […] Cathepsin B assay: To 490 μl of pre-incubated inhibitor/enzyme mixtures in assay buffer in 0.5 ml cuvette at 37° is added 10 μl of the substrate. […] The change in fluorescence is (fluorescence units at t=6)−(fluorescence units at t=1) with a Perkin-Elmer LS-5B spectrofluorometer (ex=400 nm, em=505 nm). […] The percent inhibition is calculated as: […]
Assignment: determine reported IC50 for the given compounds.
One number for each entry, in nM.

Worked cases, IC50 given:
INSERT INTO measurements (smiles_str, unit, data_value) VALUES
  ('O=C(COc1cccs1)[C@H](CCc1ccccc1)NC(=O)[C@H](Cc1ccccc1)NC(=O)N1CCOCC1', 'nM', 79000),
  ('O=C(COc1ncnc2ccccc12)[C@H](CCc1ccccc1)NC(=O)[C@H](Cc1ccccc1)NC(=O)N1CCOCC1', 'nM', 1800),
  ('O=C(COc1nc2ccccc2s1)[C@H](CCc1ccccc1)NC(=O)[C@H](Cc1ccccc1)NC(=O)N1CCOCC1', 'nM', 21000),
  ('Cc1cc(=O)oc2cc(OCC(=O)[C@H](CCc3ccccc3)NC(=O)[C@H](Cc3ccccc3)NC(=O)N3CCOCC3)ccc12', 'nM', 4500),
  ('Cc1occc(=O)c1OCC(=O)[C@H](CCc1ccccc1)NC(=O)[C@H](Cc1ccccc1)NC(=O)N1CCOCC1', 'nM', 385),
  ('Cc1cc(OCC(=O)[C@H](CCc2ccccc2)NC(=O)[C@H](Cc2ccccc2)NC(=O)N2CCOCC2)nc2ccccc12', 'nM', 282),
  ('O=C(COc1nc2ccccc2[nH]1)[C@H](CCc1ccccc1)NC(=O)[C@H](Cc1ccccc1)NC(=O)N1CCOCC1', 'nM', 569),
  ('O=C(COc1ccc2ccc(=O)oc2c1)[C@H](CCc1ccccc1)NC(=O)[C@H](Cc1ccccc1)NC(=O)N1CCOCC1', 'nM', 4500);

API: the following record is the query input.
Give the reported IC50 for this compound. Cc1ccc2cccc(OCC(=O)[C@H](CCc3ccccc3)NC(=O)[C@H](Cc3ccccc3)NC(=O)N3CCOCC3)c2n1 219

Where these numbers come from: patent US20020128434A1
